# protocol.text: Cytotoxicity against mouse RAW264.7 cells assessed as cell survival rate up to 25 uM after 18 hrs by MTT assay relative to control
# Assay type: cell-based
# recorded.conditions: read-out: Survival
measured.metric: viability at 18 h (%)
Entry rule: numbers only, all in %.

Query: For the molecule shown here, CC1=C2C(C[C@@H]1OC(=O)/C=C/c1ccc(Cl)cc1)[C@](C)(O)CC[C@H]1[C@H](C)C(=O)O[C@H]21 (some centres not stated) , give the reported viability at 18 h.
Response: 100

Query: For the molecule shown here, CC1=C2C(C[C@@H]1OC(=O)/C=C/c1ccc(N(C)C)cc1)[C@](C)(O)CC[C@H]1[C@H](C)C(=O)O[C@H]21 (some centres not stated) , give the reported viability at 18 h.
Response: 100

Query: For the molecule shown here, COc1ccc(/C=C/C(=O)O[C@H]2CC3C(=C2C)[C@H]2OC(=O)[C@@H](C)[C@@H]2CC[C@@]3(C)O)cc1 (some centres not stated) , give the reported viability at 18 h.
Response: 100

Query: For the molecule shown here, CC(=O)O[C@]1(C)CC[C@H]2[C@H](C)C(=O)O[C@@H]2C2=C(C)[C@@H](O)CC21 (some centres not stated) , give the reported viability at 18 h.
Response: 100

Query: For the molecule shown here, CC1=C2C(C[C@@H]1OC(=O)c1ccc(C(C)(C)C)cc1)[C@](C)(O)CC[C@H]1[C@H](C)C(=O)O[C@H]21 (some centres not stated) , give the reported viability at 18 h.
Response: 52.1

Query: For the molecule shown here, N=C(N)NN , give the reported viability at 18 h.
Response: 100

Query: For the molecule shown here, CC1=C2C(C[C@@H]1OC(=O)c1ccc(C)cc1)[C@](C)(O)CC[C@H]1[C@H](C)C(=O)O[C@H]21 (some centres not stated) , give the reported viability at 18 h.
Response: 100
